Documented IC50 across a set of compounds
target-system: Cdk5/p25 (Homo sapiens, UniProt Q00535)
protocol-notes: Cyclin-Dependent Kinase 5 High Throughput Screening (cdk5-HTS) Assay
Assay type: biochemical
condition-label: high throughput screen
Give your result in nM as a bare value.

Worked cases, answers included:
CCCn1c(=O)ccc2cnc(Nc3ccc(OC)c(F)c3)nc21    48
CCCn1c(=O)ccc2cnc(Nc3ccc(F)c([N+](=O)[O-])c3)nc21    310

So, "CCCCn1c(=O)ccc2cnc(Nc3ccc(N(C)C(C)=O)cc3)nc21" ? Its IC50 was 917

So, "CCCCn1c(=O)ccc2cnc(Nc3ccc(F)cc3)nc21" ? Its IC50 was 108

So, "NS(=O)(=O)c1cccc(Nc2ncc3ccc(=O)n(C4CCCC4)c3n2)c1" ? Its IC50 was 66

So, "CCCCn1c(=O)ccc2cnc(Nc3ccc(F)c(F)c3)nc21" ? Its IC50 was 81

So, "O=c1ccc2cnc(Nc3cccc(C(F)(F)F)c3)nc2n1C1CCCC1" ? Its IC50 was 99

So, "O=c1ccc2cnc(Nc3ccc(C(F)(F)F)cc3)nc2n1CC1CC1" ? Its IC50 was 160

So, "CCC(CC)n1c(=O)ccc2cnc(Nc3cc(Cl)c(O)c(Cl)c3)nc21" ? Its IC50 was 55.5

###

target-system: cdc2/cyclinB (Homo sapiens, UniProt P06493)
Sequence (P06493 whole entry): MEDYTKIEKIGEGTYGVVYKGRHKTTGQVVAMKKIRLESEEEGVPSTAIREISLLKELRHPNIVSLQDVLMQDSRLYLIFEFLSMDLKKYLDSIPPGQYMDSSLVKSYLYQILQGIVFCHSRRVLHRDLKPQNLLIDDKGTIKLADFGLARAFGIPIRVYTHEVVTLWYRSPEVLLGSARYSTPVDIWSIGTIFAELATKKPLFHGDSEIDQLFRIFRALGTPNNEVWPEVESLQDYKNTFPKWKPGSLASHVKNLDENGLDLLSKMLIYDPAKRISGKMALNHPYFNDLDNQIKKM
Sequence (P14635 whole entry, further chain): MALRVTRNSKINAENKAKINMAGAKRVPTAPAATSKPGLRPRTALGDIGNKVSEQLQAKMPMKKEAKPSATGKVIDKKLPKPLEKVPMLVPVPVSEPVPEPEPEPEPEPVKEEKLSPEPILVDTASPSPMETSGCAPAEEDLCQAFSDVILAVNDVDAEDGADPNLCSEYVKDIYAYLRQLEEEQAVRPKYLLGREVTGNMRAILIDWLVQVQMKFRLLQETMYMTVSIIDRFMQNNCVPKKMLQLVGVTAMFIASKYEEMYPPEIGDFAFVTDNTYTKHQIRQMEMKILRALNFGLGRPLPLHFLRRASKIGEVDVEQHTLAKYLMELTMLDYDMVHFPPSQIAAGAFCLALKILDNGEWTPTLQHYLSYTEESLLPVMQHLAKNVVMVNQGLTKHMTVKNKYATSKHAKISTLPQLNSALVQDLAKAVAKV
protocol-notes: Cyclin-Dependent Kinase Assay cdc2/cyclinB
endpoint-name: IC50 (nM)
Give your result in nM as a bare value.

Worked cases, answers included:
O=c1ccc2cnc(Nc3ccc(-n4cccn4)cc3)nc2n1C1CCCCC1    267
CCCn1c(=O)ccc2cnc(Nc3ccc(Br)c(C)c3)nc21    340
CCCCn1c(=O)ccc2cnc(Nc3cc(C(F)(F)F)ccc3F)nc21    2400
O=c1ccc2cnc(Nc3ccc(C(F)(F)F)cc3)nc2n1C1CCCC1    250
CCCn1c(=O)ccc2cnc(Nc3cc(Cl)c(O)c(Cl)c3)nc21    80

Test item "CCC(CC)n1c(=O)ccc2cnc(Nc3ccc(F)c(F)c3)nc21" ; cdc2/cyclinB (Homo sapiens, UniProt P06493); reported IC50 was 190

Test item "Cc1cc(Nc2ncc3ccc(=O)n(C(C)C)c3n2)ccc1Br" ; cdc2/cyclinB (Homo sapiens, UniProt P06493); reported IC50 was 1900

Test item "O=c1ccc2cnc(Nc3ccc(O)cc3F)nc2n1CC(F)(F)F" ; cdc2/cyclinB (Homo sapiens, UniProt P06493); reported IC50 was 1860

Test item CCC(C)n1c(=O)ccc2cnc(Nc3cc(OC)cc(C(F)(F)F)c3)nc21 (stereo not drawn) ; cdc2/cyclinB (Homo sapiens, UniProt P06493); reported IC50 was 300

###

target-system: cdk4/D (Homo sapiens)
Sequence (P11802 whole entry): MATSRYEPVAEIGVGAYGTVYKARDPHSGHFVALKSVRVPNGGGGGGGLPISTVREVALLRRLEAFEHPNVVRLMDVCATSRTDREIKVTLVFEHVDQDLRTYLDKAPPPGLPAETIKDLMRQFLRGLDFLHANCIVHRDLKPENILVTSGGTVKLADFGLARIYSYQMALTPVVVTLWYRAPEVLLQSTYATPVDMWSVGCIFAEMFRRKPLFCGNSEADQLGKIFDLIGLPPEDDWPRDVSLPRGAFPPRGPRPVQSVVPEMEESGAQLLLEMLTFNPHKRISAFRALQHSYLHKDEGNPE
Sequence (P24385 whole entry, further chain): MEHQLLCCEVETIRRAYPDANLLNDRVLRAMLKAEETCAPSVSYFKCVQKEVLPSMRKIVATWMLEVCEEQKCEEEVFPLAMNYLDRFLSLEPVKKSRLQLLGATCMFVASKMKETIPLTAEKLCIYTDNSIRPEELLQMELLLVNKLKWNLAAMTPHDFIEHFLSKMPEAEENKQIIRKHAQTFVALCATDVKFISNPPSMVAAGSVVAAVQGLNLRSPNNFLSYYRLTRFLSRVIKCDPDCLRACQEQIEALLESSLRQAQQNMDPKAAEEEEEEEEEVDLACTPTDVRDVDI
protocol-notes: Cyclin-Dependent Kinase 4 (cdk4) Assay
Assay type: biochemical
condition-label: read-out: cdk4/D IC50
endpoint-name: pIC50
# pIC50 is unitless: minus log10 of the molar concentration; print number only

Worked cases, answers included:
CCC(C)n1c(=O)ccc2cnc(Nc3ccc(O)cc3F)nc21 (centres unmarked)    6.35
CCC(C)n1c(=O)ccc2cnc(Nc3cc(C(F)(F)F)ccc3F)nc21 (centres unmarked)    5.82

So, "CC(C)n1c(=O)ccc2cnc(Nc3cc(C(F)(F)F)ccc3F)nc21" ? Its pIC50 was 5.62

So, "CCCCn1c(=O)ccc2cnc(Nc3ccc(C)c(Cl)c3)nc21" ? Its pIC50 was 6.77

So, "CCC(CC)n1c(=O)ccc2cnc(Nc3cc(Cl)c(O)c(Cl)c3)nc21" ? Its pIC50 was 6.32

So, "Cc1cc(Nc2ncc3ccc(=O)n(C(C)C)c3n2)ccc1F" ? Its pIC50 was 6.89

So, "COc1ccc(Nc2ncc3ccc(=O)n(CC(F)(F)F)c3n2)cc1F" ? Its pIC50 was 5.89

Values compiled from patent US20040224958A1.
